target_system: T1, human CD81 on CD81-expressing cells (Jurkat E6.1, human PBMC, Ramos) (human, UniProt P60033 1-236)
T1 sequence: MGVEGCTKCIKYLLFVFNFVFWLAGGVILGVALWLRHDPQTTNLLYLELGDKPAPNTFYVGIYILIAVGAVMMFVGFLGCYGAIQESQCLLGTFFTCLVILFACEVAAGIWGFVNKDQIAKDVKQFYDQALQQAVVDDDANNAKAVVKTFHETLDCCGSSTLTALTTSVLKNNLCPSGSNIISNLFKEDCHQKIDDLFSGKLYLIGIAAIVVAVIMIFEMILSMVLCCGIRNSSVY
method: cell-based or functional assay
endpoint_label: Jurkat chemotaxis (% of control IgG4) at 0.001 µg/mL (%)
Write the answer as a number in %, unit excluded.

Field request: Jurkat chemotaxis (% of control IgG4) at 0.001 µg/mL | item: 002-F07 (antibody, human IgG4 S228P, lambda, V domains shown, IgG4 S228P) VH: EVQLLESGGGLVQPGGSLRLSCAASGFTFSSNYMSWVRQAPGKGLEWVSYISSSSTYTDYADSVKGRFTISRDNSKNTLYLQMNSLRAEDTAVYYCARYSYGRDSFDYWGQGTLVTVSS VL: QSVLTQPFSASGTPGQRVTISCTGSTSNIGAGFDTHWYQQLPGTAPKLLIYGNSNRPSGVPDRFSGSKSGTTASLAISGLRSEDEADYYCQSYDTNLSVWVFGGGTKLTVLG
101
